Assign folding stability dG unfold to each entry below.
Experiment: folding stability dG unfold (combined trypsin and chymotrypsin); higher = more stable
Numbers only, in kcal/mol.

Field: example entries. Status: answers known.
[[record]]
polymer_sequence = "SAGGSAGGSAGGKSKTLRLYNKDTGVAVTVTLNEDGSLSVTVEPLPPPPPVEEKVVVKGSAGGSAGGSAGGS [r10_664_TrROS_Hall]"
attribute_measured = "folding stability dG unfold"
meas_value = 1.03

[[record]]
polymer_sequence = "SAGGSAGGSAGSLTFQLPNGTEITVTEITLEIKLPNGDVILIKITVDPEPPVTTEVTFVNSAGGSAGGSAGG [r11_804_JUSTAS]"
attribute_measured = "folding stability dG unfold"
meas_value = 1.64

[[record]]
polymer_sequence = "SAGGSAGGSAGGKKIHLFMPKEVAEKFAKELEKLGIDSKEVEIEFHEVDIPPSLPPELKSAGGSAGGSAGGS [r10_602_TrMRF]"
attribute_measured = "folding stability dG unfold"
meas_value = -0.0833


Please look at the items below and tell me folding stability dG unfold for each one, in order.
1. SAGGSAGGSAMKIVKITTTQLPNGTTKVTVTFSDGSTKTVTIPPNQPGKSAEEVAKKVLLESAGGSAGGSAG [r3_368_JUSTAS]
2. SKTVVVEINGYLIVVEEKKLENGETYYTVKIVNKKTKKVIEVKAKSKEEAEKAVLEALRKLFPDEELKKLSA [r9_749_TrROS_Hall]
3. SAGGSAGGSAGVVDEVKAALEPQGLKVLSVTPGSSSVTVTVLDPKKGETTTFTIPLDDPLSAGGSAGGSAGG [r11_428_JUSTAS]

1: 2.96; 2: 2.51; 3: 1.22
